- Test system: OVCAR-3
- protocol text: NCI tumour cell line growth inhibition, 48 h
The source made the active and inactive calls. No stated cut-off is given here; in the data, active = GI50 up to about 1.1 µM and inactive = higher.
observable: GI50

- N#CCCC[Si]12OCCN(CCO1)CCO2: > 100 µM (inactive)
- OC(c1cc2ccccc2[nH]1)C(O)(c1cc2ccccc2[nH]1)c1cc2ccccc2[nH]1 (stereo not given): 4.28 µM (inactive)
- COc1c(C)c(O)c2c(=O)cc(-c3ccccc3)oc2c1C: > 100 µM (inactive)
- CC1=C(C(=O)Nc2ccccc2C)C(c2ccc([N+](=O)[O-])cc2)C(C(=O)Nc2ccccc2C)=C(C)N1: 40.1 µM (inactive)
- CCN(CC)CCOC(=O)/C(=C/c1ccc(OC)cc1)c1cc(OC)c(OC)c(OC)c1: 4.95 µM (inactive)
- O=C(O)c1cc(-c2ccc3c(O)ccc(O)c3c2)ccc1O: 20.9 µM (inactive)
- CC1C2CC=CC(=O)[C@@]2(C)CCC12OCCO2 (stereo not given in full): > 100 µM (inactive)
- CC(C)c1ccc(/C=C2\CSCC3=C2N=C2SCC(=O)N2C3c2ccc(C(C)C)cc2)cc1 (stereo not given): > 100 µM (inactive)

Recorded GI50 for `CCN(CC)CCNc1n[n+]([O-])c2cc([N+](=O)[O-])ccc2[n+]1[O-]` with OVCAR-3, please?
0.893 µM (active)

Recorded GI50 for `CCNC1=Nc2ccc(Cl)cc2C(c2ccccc2)=NN1` with OVCAR-3, please?
17.5 µM (inactive)

====

- Test system: SF-295
- protocol text: NCI tumour cell line growth inhibition, 48 h
Calls of active or inactive are those of the source. Rule as the data show it: active = GI50 up to about 1.1 µM and inactive = higher.
observable: GI50

* Cc1c(C)c2ccc(OCC(O)COC(C)C)c(C)c2oc1=O (stereo unspecified) | 23.5 µM (inactive)
* CCCCOc1c(C(=O)O)cc(Br)cc1C(=O)O | > 100 µM (inactive)
* c1ccc(CCN2CCc3[nH]c4ccccc4c3C2)cc1 | 15.1 µM (inactive)
* Cc1cc(C)c2c(=O)n(CN3CCC(O)(c4ccccc4)CC3)sc2n1 | > 100 µM (inactive)
* CN(C)C(=S)Oc1ccc2ccc(=O)oc2c1 | > 100 µM (inactive)

Please look up its GI50: `CC(C)NC(=O)OCc1c(COC(=O)NC(C)C)c(-c2ccc(Cl)c(Cl)c2)n2c1CCC2`
48.1 µM (inactive)

Please look up its GI50: `O=[N+]([O-])C(=C(Nc1ccccc1)Nc1ccccc1)C(Cl)=C(Cl)Cl`
17.8 µM (inactive)

Please look up its GI50: `Cc1cc(C)nc(NS(=O)(=O)c2ccc(NC(=O)c3cccc4c(N)c5ccccc5nc34)cc2)n1`
> 100 µM (inactive)

Please look up its GI50: ON=C1CCC(c2ccccc2)CC1 (stereo unspecified)
> 100 µM (inactive)

Please look up its GI50: `O=C(N/C(=C\c1ccccc1[N+](=O)[O-])c1nc2ccccc2[nH]1)c1ccccc1`
55.8 µM (inactive)

Please look up its GI50: `CC(=O)CC(=O)CCCC(=O)Nc1ccc(Cl)cc1Cl`
> 100 µM (inactive)

====

- Tested on: M14
- protocol text: NCI tumour cell line growth inhibition, 48 h
Activity calls are given as the source filed them. No stated cut-off is given here; in the data, active = GI50 up to about 1.1 µM and inactive = higher.
observable: GI50

// worked examples, GI50 included
* COC(=O)[C@H]1[C@@H](C(C)C)O[C@@H](C(C)C)O[C@H]1C(F)(F)F | > 100 µM (inactive)
* Cc1nnc(N)nc1/C=C\c1ccc(Cl)cc1Cl | 29.6 µM (inactive)
* Cc1c(C)c2c(c(N)c1C#N)C(=O)N(NC(=O)c1ccccc1)C2=O | > 100 µM (inactive)
* CC1=C(C(=O)Nc2ccccc2C)C(c2ccc(C3C(C(=O)Nc4ccccc4C)=CNC=C3C(=O)Nc3ccccc3C)cc2)C(C(=O)Nc2ccccc2C)=C(C)N1 | 16.8 µM (inactive)

Please look up its GI50: ON=C1CCC(c2ccccc2)CC1 (stereo not given)
> 100 µM (inactive)

Please look up its GI50: `Cn1cnc2c(NCc3ccccc3)nc(NCCO)nc21`
78.9 µM (inactive)

Please look up its GI50: `CN(C)c1ccc(Cc2cc(C(C)(C)C)cc(C(C)(C)C)c2O)cc1`
18.1 µM (inactive)

Please look up its GI50: `CCOc1ccc(N/C(Cl)=C(Cl)\C(=C(\Nc2ccc(OCC)cc2)n2nnc3ccccc32)[N+](=O)[O-])cc1`
4.75 µM (inactive)

Please look up its GI50: `O=S(=O)(CCn1c(Sc2ccccc2)c(Sc2ccccc2)c2ccccc21)c1ccccc1`
> 100 µM (inactive)

Please look up its GI50: C=C1CC23CCC4C(C)(C(=O)O)CCCC4(C)C2CCC1C3 (stereo not given)
56 µM (inactive)
